These data points were gathered from patent EP4745118A1.

Below, each of the compounds is paired with its reported MIC value.
# Test system: Klebsiella pneumoniae
# ASSAY PROCEDURE: In vitro antibacterial activity, agar dilution method (MIC)
# Assay type: cell-based
# PARTICULARS: Klebsiella pneumoniae, 18 h, Klebsiella pneumoniae 18-8 (ESBLs-producing); agar dilution, 35°C, 18 hours; read-out: MIC
READOUT LABEL: MIC (µg/mL)

| COMPOUND | COMPARATOR | VALUE REPORTED |
| --- | --- | --- |
| COC[C@H]1C[C@H]1C#CC#Cc1ccc(C(=O)N[C@H](C(=O)NO)C(C)(C)N)cc1 | = | 0.06 |
| CO[C@H]1CCC[C@@H]1C#CC#Cc1ccc(C(=O)N[C@H](C(=O)NO)C(C)(C)N)cc1 | = | 0.5 |
| C[C@H]1[C@H](NC(=O)/C(=N\OC(C)(C)C(=O)O)c2csc(N)n2)C(=O)N1S(=O)(=O)O | = | 1 |
| C[C@@H](O)[C@H]1C(=O)N2C(C(=O)O)=C(SCCN=CN)C[C@H]12 | = | 0.12 |
| CN(C)c1cc(NC(=O)CNC(C)(C)C)c(O)c2c1C[C@H]1C[C@H]3[C@H](N(C)C)C(O)=C(C(N)=O)C(=O)[C@@]3(O)C(O)=C1C2=O | = | 2 |
| NCC[C@H](O)C(=O)N[C@@H]1C[C@H](N)[C@@H](O[C@H]2O[C@H](CN)[C@@H](O)[C@H](O)[C@H]2O)[C@H](O)[C@H]1O[C@H]1O[C@H](CO)[C@@H](O)[C@H](N)[C@H]1O | = | 1 |
| C[C@@H](O)[C@H]1C(=O)N2C(C(=O)O)=C(S[C@@H]3CN[C@H](C(=O)N(C)C)C3)[C@H](C)[C@H]12 | ≤ | 0.03 |
| CO/N=C(\C(=O)N[C@@H]1C(=O)N2C(C(=O)[O-])=C(C[N+]3(C)CCCC3)CS[C@H]12)c1csc(N)n1 [Cefepime] | = | 1 |

---

Below, each of the compounds is paired with its reported MIC value.
# System: Klebsiella pneumoniae
# ASSAY PROCEDURE: In vitro antibacterial activity, agar dilution method (MIC)
# Format: cell-based
# PARTICULARS: Klebsiella pneumoniae, 18 h, Klebsiella pneumoniae 17-R27 (CRE); agar dilution, 35°C, 18 hours; read-out: MIC
# Method: According to the relevant operating procedures of the Clinical Laboratory Standards Institute (CLSI) in the United States, an antimicrobial susceptibility testing was conducted using the agar dilution method. […]. The agar was allowed to solidify and set aside for later use. The test bacteria were propagated in broth and adjusted to a turbidity of 0.5 McFarland (approximately 1-2 × 10^8 CFU/mL) using a turbidimeter before inoculation. […]

| COMPOUND | MIC (µg/mL) |
| --- | --- |
| CO/N=C(\C(=O)N[C@@H]1C(=O)N2C(C(=O)[O-])=C(C[N+]3(C)CCCC3)CS[C@H]12)c1csc(N)n1 [Cefepime] | 0.5 |
| C[C@H]1[C@H](NC(=O)/C(=N\OC(C)(C)C(=O)O)c2csc(N)n2)C(=O)N1S(=O)(=O)O [Aztreonam] | 0.25 |
| COC[C@@H]1C[C@H]1C#CC#Cc1ccc(C(=O)N[C@H](C(=O)NO)C(C)(C)N)cc1 [Ia] | 0.5 |
| COC[C@@H]1C[C@@H]1C#CC#Cc1ccc(C(=O)N[C@H](C(=O)NO)C(C)(C)N)cc1 [Id] | 0.5 |
| C[C@@H](O)[C@H]1C(=O)N2C(C(=O)O)=C(S[C@@H]3CN[C@H](C(=O)N(C)C)C3)[C@H](C)[C@H]12 [Meropenem] | 0.25 |
| C[C@H]1COc2c(N3CCN(C)CC3)c(F)cc3c(=O)c(C(=O)O)cn1c23 [Levofloxacin] | 16 |
| C[C@@H](O)[C@H]1C(=O)N2C(C(=O)O)=C(SCCN=CN)C[C@H]12 [Imipenem] | 0.12 |
